Tested on: 282377-053-R-J1-PDC complex spheroid viability;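 note: spheroids exposed to compounds for seven days; 100% = DMSO vehicle control viability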
Assay: Anticancer human tumor 282377-053-R-J1-PDC patient-derived colon adenocarcinoma cell line growth inhibition [POLQ]
Details: second compound 0.316 µM; first compound 0.0316 µM; hits give low values
result_type: viability, T/C (%)
Give your result in % as a bare value.

Value of viability, T/C reported for the compound O=c1[nH]cc(F)c(=O)[nH]1 + Cc1cccc(N(C)C(=O)C2C(O)CCN2c2nc(C)cc(C(F)(F)F)c2C#N)c1 is 117

Record summary for C=CC(=O)N1CCN(c2nc(=O)n(-c3c(C)ccnc3C(C)C)c3nc(-c4c(O)cccc4F)c(F)cc23)C(C)C1 (stereo not drawn) + Cc1cccc(N(C)C(=O)C2C(O)CCN2c2nc(C)cc(C(F)(F)F)c2C#N)c1 : reported viability, T/C = 91.2

Item: O=C(Nc1ccc(O)c(NS(=O)(=O)c2ccc(F)cc2)c1)c1ccc(-c2ccccc2)cc1 + Cc1cccc(N(C)C(=O)C2C(O)CCN2c2nc(C)cc(C(F)(F)F)c2C#N)c1 | viability, T/C: 104
